Protocol Text: Solubility screening of the compound of Formula IV (freebase) in solvent mixtures
Format: physicochemical
Run Parameters: organic solvent or mixture; ACN, approximately 25° C.

| Compound | Unit Label | solubility |
| --- | --- | --- |
| CC(C)(O)COc1cc(-c2ccc(N3CCC(O)(Cc4ccccn4)CC3)nc2)c2c(C#N)cnn2c1 [compound of Formula IV] | mg/mL | 21.2 |

###

Protocol Text: Solvent solubility screen of the compound of Formula II
Type: physicochemical
Run Parameters: Acetone, 40 °C, organic solvent or mixture, thermodynamic from solid; read-out: Approximate solubility

| Compound | solubility |
| --- | --- |
| COc1ccc(CN2C3CC2CN(c2ccc(-c4cc(OCC(C)(C)O)cn5ncc(C#N)c45)cn2)C3)cn1 [compound of Formula II] | < 5 mg/mL |

###

Protocol Text: Solubility screening of the compound of Formula IV (freebase) in solvent mixtures
Type: physicochemical
Run Parameters: organic solvent or mixture; DCM, approximately 25° C.

| Structure String | solubility |
| --- | --- |
| CC(C)(O)COc1cc(-c2ccc(N3CCC(O)(Cc4ccccn4)CC3)nc2)c2c(C#N)cnn2c1 | > 70 mg/mL |

###

Protocol Text: Solubility of the free base of the compound of Formula I in solvents and mixed solvent systems
Assay type: physicochemical
Run Parameters: 25 °C, aqueous with cosolvent or surfactant or cyclodextrin, thermodynamic from solid; 30% DMSO in H2O, room temperature; read-out: Solubility

| Compound | solubility |
| --- | --- |
| COc1ccc(CN2CCN(c3ccc(-c4cc(-c5cnn(C)c5)cn5ncc(C#N)c45)cn3)CC2)cn1 [freebase of the compound of Formula I] | 90 µg/mL |

###

Protocol Text: Solubility of the free base of the compound of Formula I in solvents and mixed solvent systems
Format: physicochemical
Run Parameters: 25 °C, aqueous with cosolvent or surfactant or cyclodextrin, thermodynamic from solid; 40% DMSO in H2O, room temperature; read-out: Solubility

| Molecule | solubility (µg/mL) |
| --- | --- |
| COc1ccc(CN2CCN(c3ccc(-c4cc(-c5cnn(C)c5)cn5ncc(C#N)c45)cn3)CC2)cn1 [freebase of the compound of Formula I] | 100 |

###

Protocol Text: Solvent solubility screen of the compound of Formula II
Format: physicochemical
Run Parameters: THF:Water (1%), 40 °C, organic solvent or mixture, thermodynamic from solid; read-out: Approximate solubility
Description: A solvent solubility screen was conducted in 32 solvent systems as follows. Between each addition, the mixture was checked for dissolution. If no dissolution was apparent, the mixture was heated to around 40° C. and checked again. This procedure was continued until dissolution was observed or until 100 volumes of solvent had been added. Undissolved material from the solubility screen was isolated and analyzed by XRPD.
Reported Property: solubility (mg/mL)

| Structure String | Reported Property | Unit Label | Endpoint Value |
| --- | --- | --- | --- |
| COc1ccc(CN2C3CC2CN(c2ccc(-c4cc(OCC(C)(C)O)cn5ncc(C#N)c45)cn2)C3)cn1 | solubility | mg/mL | 48 |

###

Protocol Text: Solubility of the free base of the compound of Formula I in solvents and mixed solvent systems
Assay type: physicochemical
Run Parameters: 25 °C, organic solvent or mixture, thermodynamic from solid; 80% DCM in EtOH, room temperature; read-out: Solubility
Reported Property: solubility

| Compound | Reported Property | Endpoint Value |
| --- | --- | --- |
| COc1ccc(CN2CCN(c3ccc(-c4cc(-c5cnn(C)c5)cn5ncc(C#N)c45)cn3)CC2)cn1 [freebase of the compound of Formula I] | solubility | 29 mg/mL |

###

Protocol Text: Solubility of the free base of the compound of Formula I in solvents and mixed solvent systems
Assay type: physicochemical
Run Parameters: organic solvent or mixture, thermodynamic from solid; THF, 60° C.; read-out: Solubility at 60° C.
Reported Property: solubility

| Compound | Reported Property | Endpoint Value |
| --- | --- | --- |
| COc1ccc(CN2CCN(c3ccc(-c4cc(-c5cnn(C)c5)cn5ncc(C#N)c45)cn3)CC2)cn1 [freebase of the compound of Formula I] | solubility | 10.2 to 13 mg/mL |

###

Protocol Text: Solubility of the free base of the compound of Formula I in solvents and mixed solvent systems
Type: physicochemical
Run Parameters: 25 °C, organic solvent or mixture, thermodynamic from solid; 90% THF in EtOH, room temperature; read-out: Solubility

| Compound | Unit Label | solubility |
| --- | --- | --- |
| COc1ccc(CN2CCN(c3ccc(-c4cc(-c5cnn(C)c5)cn5ncc(C#N)c45)cn3)CC2)cn1 [freebase of the compound of Formula I] | µg/mL | 3180 |

###

Protocol Text: Solubility screening of the compound of Formula IV (freebase) in solvent mixtures
Type: physicochemical
Run Parameters: organic solvent or mixture; THF:heptane (30:70), approximately 25° C.

| Structure String | solubility / µg/mL |
| --- | --- |
| CC(C)(O)COc1cc(-c2ccc(N3CCC(O)(Cc4ccccn4)CC3)nc2)c2c(C#N)cnn2c1 | 600 |

###

Protocol Text: Solubility screening of the compound of Formula IV (freebase) in solvent mixtures
Format: physicochemical
Run Parameters: organic solvent or mixture; Chloroform:heptane (1:1), approximately 25° C.

| Structure String | Unit Label | solubility |
| --- | --- | --- |
| CC(C)(O)COc1cc(-c2ccc(N3CCC(O)(Cc4ccccn4)CC3)nc2)c2c(C#N)cnn2c1 | mg/mL | 11.7 |

###

Protocol Text: Solubility of the free base of the compound of Formula I in solvents and mixed solvent systems
Assay type: physicochemical
Run Parameters: 20% THF in H2O, 25 °C, aqueous with cosolvent or surfactant or cyclodextrin, thermodynamic from solid; title: THF/H2O at room temperature; head: % THF in EtOH = 20; read-out: Solubility

| Molecule | solubility (µg/mL) |
| --- | --- |
| COc1ccc(CN2CCN(c3ccc(-c4cc(-c5cnn(C)c5)cn5ncc(C#N)c45)cn3)CC2)cn1 [freebase of the compound of Formula I] | 130 |

###

Protocol Text: Solvent solubility screen of the compound of Formula II
Format: physicochemical
Run Parameters: NMP, 40 °C, organic solvent or mixture, thermodynamic from solid; read-out: Approximate solubility
Reported Property: solubility (mg/mL)

| Molecule | Reported Property | Unit Label | Endpoint Value |
| --- | --- | --- | --- |
| COc1ccc(CN2C3CC2CN(c2ccc(-c4cc(OCC(C)(C)O)cn5ncc(C#N)c45)cn2)C3)cn1 [compound of Formula II] | solubility | mg/mL | 17 |

###

Protocol Text: Primary salt screen of the compound of Formula II: XRPD post-cycling and post-stability (40° C., 75% RH overnight)
Type: physicochemical
Run Parameters: compound of Formula II + the acid given as label; Acetone/water (10%); cycled RT/40° C. over 24 hours

| Molecule | XRPD post-cycling |
| --- | --- |
| O=C(O)C(=O)O [Oxalic acid] | Amorphous |
| O=S(=O)(O)O [Sulfuric acid] | No solid |
| CS(=O)(=O)O [Methane sulfonic acid] | Amorphous |
| CCS(=O)(=O)O [Ethane sulfonic acid] | No solid |
| O=S(=O)(O)CCS(=O)(=O)O [1,2-Ethane disulfonic acid] | No solid |
| O=C(O)/C=C\C(=O)O [Maleic acid] | Amorphous |

###

Protocol Text: Solubility screening of the compound of Formula IV (freebase) in solvent mixtures
Format: physicochemical
Run Parameters: organic solvent or mixture; THF, approximately 25° C.

| Structure String | solubility |
| --- | --- |
| CC(C)(O)COc1cc(-c2ccc(N3CCC(O)(Cc4ccccn4)CC3)nc2)c2c(C#N)cnn2c1 | > 37 mg/mL |

###

Protocol Text: Solubility screening of the compound of Formula IV (freebase) in solvent mixtures
Type: physicochemical
Run Parameters: organic solvent or mixture; IPA, approximately 25° C.
Reported Property: solubility (µg/mL)

| Structure String | Reported Property | Endpoint Value |
| --- | --- | --- |
| CC(C)(O)COc1cc(-c2ccc(N3CCC(O)(Cc4ccccn4)CC3)nc2)c2c(C#N)cnn2c1 | solubility | 7000 |

###

Protocol Text: Primary salt screen of the compound of Formula II: XRPD post-cycling and post-stability (40° C., 75% RH overnight)
Assay type: physicochemical
Run Parameters: compound of Formula II + the acid given as label; from IPA/water (10%); 40° C. and 75% RH overnight
Method: The salt screen was performed as follows. […] In cases where stock solutions could not be attained, the acid was added neat to the solution of the compound of Formula II. The samples were then temperature cycled between ambient (RT) and 40° C. in 4-hour cycles over 24 hours. Each mixture was filtered and isolated solids were analyzed (wet) by XRPD to determine crystallinity and form. Samples in which solid was not observed were stored uncapped to allow solvent evaporation. […]

| Compound | XRPD post-stability |
| --- | --- |
| CS(=O)(=O)O [Methane sulfonic acid] | Form 2 |
| CCS(=O)(=O)O [Ethane sulfonic acid] | Amorphous |
| O=C(O)/C=C\C(=O)O [Maleic acid] | Amorphous |
| O=S(=O)(O)c1ccccc1 [Benzene sulfonic acid] | Form 2 |
| Cl [Hydrochloric acid] | Form 2 |
